Recorded Endpoint: melting point (°C)

# Compound, Recorded Endpoint, Uom, Data Value
rows = [
    ("Cn1cc2c(c1C(=O)Nc1ccc(F)c(C#N)c1)OC[C@@H](C(C)(C)O)NS2(=O)=O [Compound 107]", "melting point", "°C", 259.8),
    ("CC1CCc2c(cn(C)c2C(=O)Nc2ccc(F)c(F)c2)S(=O)(=O)N1 (centres unmarked)", "melting point", "°C", 229.8),
    ("CC(C)C(O)C1COc2c(cn(C)c2C(=O)Nc2ccc(F)c(F)c2)S(=O)(=O)N1 (racemic)", "melting point", "°C", 247.3),
    ("Cn1ccc(C2(C)COc3c(cn(C)c3C(=O)Nc3ccc(F)c(F)c3)S(=O)(=O)N2)n1 (single isomer, unassigned) [Compound 192a]", "melting point", "°C", 208.7),
    ("CCC(O)[C@H]1COc2c(cn(C)c2C(=O)Nc2ccc(F)c(C#N)c2)S(=O)(=O)N1 (some centres unmarked)", "melting point", "°C", 252.2),
]

====

Below, each entry is listed alongside its reported melting point.
Recorded Endpoint: melting point (°C)

# Compound, Recorded Endpoint, Uom, Data Value
records = [
    ("Cn1cc2c(c1C(=O)Nc1ccc(F)c(F)c1)OC[C@@H](C(C)(C)F)NS2(=O)=O [Compound 121]", "melting point", "°C", 239.8),
    ("Cc1cc(NC(=O)c2c3c(cn2C)S(=O)(=O)N[C@@H]([C@H](C)O)CC3)ccc1F [Compound 112]", "melting point", "°C", 287.3),
    ("Cn1cc2c(c1C(=O)Nc1ccnc(C(F)F)c1)OCC(C)(C)NS2(=O)=O [Compound 158]", "melting point", "°C", 229.9),
]

====

Recorded Endpoint: melting point (°C)

# Molecule, Recorded Endpoint, Uom, Data Value
data = [
    ("Cn1cc2c(c1C(=O)Nc1ccc(F)c(C#N)c1)OC[C@](C)(c1ccccn1)NS2(=O)=O", "melting point", "°C", 235),
    ("Cc1cccc(CC2(C)COc3c(cn(C)c3C(=O)Nc3ccc(F)c(F)c3)S(=O)(=O)N2)n1 (racemic)", "melting point", "°C", 206),
    ("Cn1cc2c(c1C(=O)Nc1ccc(F)c(F)c1)CC[C@H](C(C)(C)O)NS2(=O)=O", "melting point", "°C", 218.2),
    ("C[C@H](O)[C@H]1C=Cc2c(cn(C)c2C(=O)Nc2ccc(F)c(Cl)c2)S(=O)(=O)N1", "melting point", "°C", 211.3),
]

====

Recorded Endpoint: melting point (°C)

# Compound, Recorded Endpoint, Uom, Data Value
measured = [
    ("Cn1cc2c(c1C(=O)Nc1ccc(F)c(C(F)F)c1)OC[C@@H](C(C)(C)O)NS2(=O)=O", "melting point", "°C", 214.4),
    ("Cn1cc2c(c1C(=O)Nc1ccc(F)c(F)c1)OC[C@](C)(c1ccccn1)NS2(=O)=O", "melting point", "°C", 270.8),
    ("Cc1cc(NC(=O)c2c3c(cn2C)S(=O)(=O)N[C@@H](C(O)C2CC2)CO3)ccc1F (stereo in doubt)", "melting point", "°C", 234.7),
    ("Cn1cc2c(c1C(=O)Nc1ccc(F)c(F)c1)OC[C@@](C)(c1ccccn1)NS2(=O)=O", "melting point", "°C", 270.5),
    ("Cn1cc2c(c1C(=O)Nc1ccc(F)c(F)c1)OCC(C)(Cc1ccncc1)NS2(=O)=O (centres unmarked)", "melting point", "°C", 276),
]
